B1: TPR t1 (parent)
chain: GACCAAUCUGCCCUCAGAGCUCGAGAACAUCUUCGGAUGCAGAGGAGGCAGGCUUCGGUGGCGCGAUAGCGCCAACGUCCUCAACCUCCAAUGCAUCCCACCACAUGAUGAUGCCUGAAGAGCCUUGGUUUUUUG

- Variants of: B1
- protocolDetails: polymerase ribozyme fitness, log enrichment relative to wild type (log ratio); higher = more active; in vitro selection for triplet polymerase activity
Each entry below carries its recorded polymerase ribozyme fitness (log ratio).
propertyName: polymerase ribozyme fitness (log ratio)

[[record]]
sequencetext = "GACCAAUCUGCCCUCAGAGCUCGAGAACAUCUUCGUAUGCAGACGAGGCAGGCUUCGGUGGCGCGAUAGUGCCAACGUCCUCAACCUCCAAUGCAUCCCACCACAUGAUGAUGCCUGAAGAGCCUUGGUUUUUUG"
propertyname = "polymerase ribozyme fitness (log ratio)"
reportedresult = -2.13

[[record]]
sequencetext = "GACCAAUCUGCCCUCAGAGCUCGAGAACAUCAUCGGAUGCAGAGGAGUCAGGCUUCGAUGGCGCGAUAGCGCCAACGUCCUCAACCUCCAAUGCAUCCCACCACAUGAUGAUGCCUGAAGAGUCUUGGUUUUUUG"
propertyname = "polymerase ribozyme fitness (log ratio)"
reportedresult = -4.55

[[record]]
sequencetext = "GACCAAUCUGCCCUCAGAUGUCGAGAACAUCUUCGGAUGCAGAGGAGGCAGGCUUCUGUGGCGCGAUAGGGCCAACGUCCUCAAUCUCCAAUGCAUCCCAUCACAUGAUGAGGCCUGAAGAGCCUUGGUUUUUUG"
propertyname = "polymerase ribozyme fitness (log ratio)"
reportedresult = -6.53

[[record]]
sequencetext = "GACCAAUCUGCCCUCAGAGCUCGAGAUCAUCUUCGGAUGCAGAGGAGGCAGGCUUCGGUUGCGCGAUAGCGCCAACGUCCUCAACCUCCAAUGCAUCCCACCACAUGAUGAUGCCUGAAGAGCCUUGGUUUUUUG"
propertyname = "polymerase ribozyme fitness (log ratio)"
reportedresult = -3.37

[[record]]
sequencetext = "GACCAAUCUGCUCUCAGAGCUCGAGAACAUCUUCGGAUGCAGAGGGGGCAGGCUUAGGUGGCGCGAUAGCGCCAACGUCCUCAACCUCCAAUGCAUCCCACCACUUGAUGAUGCCUGAAGAGCCUUGGUUUUUUG"
propertyname = "polymerase ribozyme fitness (log ratio)"
reportedresult = -1.73

[[record]]
sequencetext = "GACCAAUAUGCCCUCAGAGCUCGAGAACAUCUUCGGAUGCAGAGGAGGCAGGUUACGGUGGCGCGAUAGCGCCAACAUCCUCAACCUCAAAUGCAUCCCACCACAUGAUGAUGCCUGAAGAGCCUUGGCUUUUUG"
propertyname = "polymerase ribozyme fitness (log ratio)"
reportedresult = -3.11

[[record]]
sequencetext = "GACCAAUCCGCCCUCAGAGCUCGAGAACAUCUUCGGAUGCAGAGGAGGCAGGCUUCGGUGGCGCGAUAGCGACAACGUCCUCUACCUCCGAUGCAUCCCACCACAUGAUGAUGCCUGAAGAGCCUUGGUUCUUUG"
propertyname = "polymerase ribozyme fitness (log ratio)"
reportedresult = 0.697

[[record]]
sequencetext = "GACCAAUCUGCCCUCAGAGCUCGAGAACAUCUUCGGAUGCAGAGGACGCAGGCUUCGGUGGCGCGAUAGCGCCAACGUCCUUAACCUCCAAUGCAUCCCACCACAUGAUGAUGCCUGAAGAGCCUUGGUUUUUUG"
propertyname = "polymerase ribozyme fitness (log ratio)"
reportedresult = -1.27

[[record]]
sequencetext = "GACCAAUCUGCCCUGAGAGCUCGAGAACAUCUUCGGAUGCAGAGGAGGCAGGCUUCGGUGGCGCGAUAGCGCCAACGUCCUCAUCCUCCAAUGCAUCCCACCACAUGAUGAUGCCUGAAGAGCCUUGGUUUUUUG"
propertyname = "polymerase ribozyme fitness (log ratio)"
reportedresult = -2.56

[[record]]
sequencetext = "GACCAAUCUGCCCUCAGAGCUCGAGAACAUCCUCGAAUGCAGAGGAGGCAGGCUUCGGUGGCGCGAUAGCGCCAACGUCCUCAACCUCCAAAGCAUCCCACCACUUGAUGAUGCCUGAAGAGAGUUGGUUUUUUG"
propertyname = "polymerase ribozyme fitness (log ratio)"
reportedresult = -5.91

[[record]]
sequencetext = "GACCUAUCUGGCCUCAGAGCUCGAGAACUUCUUCGGAUGCAGAGGAGGCAGGCUUCGGUGGCGCGAUAGCGCCAACGUCCUCAACCUCCAAUGCAUCCCACCACAUGAUGAUGCCUGAAGAGCCUUGGUUUUUUG"
propertyname = "polymerase ribozyme fitness (log ratio)"
reportedresult = -3.66


Hey, just so you know, these numbers are from the RNAGym collection of RNA variant scans (doi:10.1073/pnas.2313332121).
